- assayed_target: CBP BRD (Homo sapiens)
- Sequence (Q92793 1085-1192 limits assumed): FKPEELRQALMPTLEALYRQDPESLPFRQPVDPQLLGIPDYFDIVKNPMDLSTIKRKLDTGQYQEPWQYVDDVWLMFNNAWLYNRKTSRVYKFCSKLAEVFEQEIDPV
- experimental_details: Bromodomain binding affinity (tryptophan fluorescence binding assay)
- measurement_conditions: Table 5; read-out: CBP
Can you tell me Kd for the items I'm about to list?
Numbers only, in µM.

>>> recorded_number("Cc1cc(/N=N/c2ccc(S(=O)(=O)Nc3ccccn3)cc2)c(N)cc1O")
14

# next compound below
Query: Any idea what its Kd is? The compound is O=C(O)c1cc(/N=N/c2ccc(S(=O)(=O)Nc3ccccn3)cc2)ccc1O [Sulfasalazine (MS0123028), Sulfasalazine, reference compound]
Reply: 82

====

Consider the following compounds; for each one, report its Kd.
- assayed_target: BRD4-1 (Homo sapiens, UniProt O60885)
- experimental_details: Bromodomain binding affinity (tryptophan fluorescence binding assay)
- measurement_conditions: Table 1; read-out: Binding Affinity, Kd BRD4-1
Numbers only, in µM.

>>> recorded_number("Cc1cc(/C=C/c2ccc(S(=O)(=O)Nc3ccccn3)cc2)c(N)cc1O")
2.1

Query: Kd lookup needed for Cc1cc(/C=C/c2ccc(S(=O)(=O)Nc3ccccn3)cc2)c(NC(=O)OC(C)(C)C)cc1O , thanks.
Reply: 1.5
